# credit: the DeepSol protein solubility set

experiment: soluble on expression in E. coli; label from the status in PepcDB or PDB records
result-type: soluble on expression in E. coli

sequence-record: MSLDDAKLTASKEAKRIVIQSIQRVATETAIENSVTVFHIESDEIKGRIIGREGRNIRALEAATGVEIVVDDTPEAIVLSAFDPVRREIARLALHQLVTDGRIHPARIEEVVSKVRKQVEEEIIETGKRTTIDLGIHGLHPELIRIIGKMKYRSSYGQNLLQHARETANLCAVMASELGLNPKKAKRAGLLHDIGKVPDEEPELPHALLGMKLAEKYKEKPDICNAIGAHHDETEMTSLLAPIVQVCDAISGARPGARREIVEAYIKRLNDLEQLAMAYPGVTKTYAIQAGRELRVIVGADKIDDKQTESLSGEIAKKIQDEMTYPGQVKITVIRETRAVSFAKEGHHHHHH
result-type: soluble on expression in E. coli
recorded-value: not soluble

sequence-record: MFQSSAAPAPQTADVTNPFGNFAAPSAFPTNVPPPAAHSAPFGVQPAPQHSAAPFYANLHQAPPMQSQAPNGHQAAPFGYPNAHPDDLARMTAQMSLNQQGAPAGWNTTTSAVSNNPFGATSAPQPMYTAPMGMYQQPFGAQPMWNPAMAAYGQQYGYGQPVPPQQQHQIQLVHAAMAAKNAAQAQQAQAASADPFGL
result-type: soluble on expression in E. coli
recorded-value: not soluble

---

assay: soluble on expression in E. coli; label from the status in PepcDB or PDB records
result-type: soluble on expression in E. coli

See these solved cases before continuing.
sequence-record: MGSDKIHHHHHHMKKNVQIKGTKSGISIFLSDKASISELQQELSQLLADQKQNPYSGEKLEVQVQIGNRLFSEEEEREISTIIHNNSQMKISAFYSNVMSKDEAKKWKENDQIFSMATIIRSGQVVQVPGDFLLIGDVNPGGQIRSNGNVFVLGNIKGIIHAGFEGDENAVVAGKFLYPSQVRIAGKVYGFDSEDYKEVADTDLFSAFVNDAGEIVIDEIHKIRKIRPEISNFQGGR
result-type: soluble on expression in E. coli
recorded-value: not soluble
--
sequence-record: MGSDKIHHHHHHMMQALKIDEEIWQMFPEARFEVLVVKGINNQSKADEYYQELLDRAIEKSQKYIANDVFRDNPVVSEWRTAFTKFKKKKGARASIEALLKRVSQGKSLSPINPLVDIYNSISLEYGVPCGGEDLQKMDGTMHLGVAKGGESFRPLGSDEDEPALPGEVIYYDATGAICRCFNWREAQRTMLTEDTTDAVMVIEAINADQAQRAKSAIEKLKELVESKLNATGEHFTLQAQ
result-type: soluble on expression in E. coli
recorded-value: not soluble
--
sequence-record: MLSSSEKVAGQGVSGAYRELVRLLHRAAKDQLIVTENLPIEADVTHFHTIDFPYYLSTFQKKRSGRKIGYVHFLPATLEGSLKIPFFLKGIVKRYVFSFYNRMEHLVVVNPMFIEDLVAAGIPREKVTYIPNFVNKEKWHPLPQEEVVRLRTDLGLSDNQFIVVGAGQVQKRKGIDDFIRLAEELPQITFIWAGGFSFGGMTDGYEHYKKIMENPPKNLIFPGIVSPERMRELYALADLFLLPSYNELFPMTILEAASCEAPIMLRDLDLYKVILEGNYRATAGREEMKEAILEYQANPAVLKDLKEKAKNISREYSEEHLLQIWLDFYEKQAALGRK
result-type: soluble on expression in E. coli
recorded-value: not soluble
--
sequence-record: MAANQNVTKKKKAVIGGIFKAELNNFLMKELAEDGYSGVEVRSTPARAEVIIMATRTQNVLGERGRRIKELTSVVQKRFGFEEGSVELYAEKVSNRGLCAVAQCESLRYKLVGGLAVRRACYGVLRFIMESGAQGVEVIVSGKLRGQRAKAMKFVDGLMIHSGHPVNDYIQQAVRHVQLRQGVIGIKVKIMLPYDPRGQNGPRNALPDHVQIVEPQEEVLPKEPHSQHKEEKKDVQVPAAQPVAPVQ
result-type: soluble on expression in E. coli
recorded-value: not soluble

Please state, for each entry, its recorded soluble on expression in E. coli.
1. MAKAAKRFRTPSTTRVLYVRHAHAHGRQTWGGDDNKRPLDKKGRRQAEMLVPMLLPFKPTAIYSAVPDRCQATALPLADELGLDVSVNRLFGDDAWETDPEACKKRFTDVVAQGGVPMIVGQGDIIPEMIKWFSENGTLPIDEKIKAKKGSVWVLSFHDGVFTGADYLEHHHHHH
2. MLDYIPWIGNGYRYGNGYKGVAGAGHSATNGSPAGNTSSTTQSNDVAPTFSNVGVGLKANVQGTLGDSQTTTVGGHQWPTLDPANLQLWTGAEWRNDSKTQNNTTTNENHTKFASATGSGQQQGSTTTTSAGNPDSLKQDKADKSGNSISVQEATSGDNLTNYTNLPPNLTPTSDWPNALSFTNKNNAQRAQLFLRGLLGSIPVLVNNLEHHHHHH
3. MKRIAFVGSVGAGKTTLFNALQGNYTLARKTLAVEFNDKGDIDTPGEYFSHPRWYHALITTLQDVDMLIYVHGANDPESRLPAGLLDIGVSKRQIAVISKTDMPDADVAATRKLLLETGFEEPIFELNSHDPQSVQQLVDYLASLTKQEEAGEKTHHSELEHHHHHH
4. MSLKAEFLTPVVTIFDEEGNLDKEGNKKVYDHLIDGGVDGLVIMGSTGEFFNMSMDMQKELIDLVTSHVNKRVKVFIGTSRMCINESIELSNYAHNSGADGVMIISPYYFSLDDDSIELFYSEIAKNTEAEIYLYNYPDRTGYDLSPELTLRLARKHKNIVGYKDTVTLMGHTRDLINTMKIEFPEFKVYSGYDENFIHNLMSGGAGCIGGLSNLIPEVCSKWAEAYNNRDMEKVIEIQKYINKAMDFYLITNPFIPAMKKAMNIRGLQISDYMTAPFVKPNEKQVCEIKKLMNELNIEGHHHHHH
5. MSGALDGVRVLDLSRVLAGPYATMILGDLGADVIKVEAPGGSDDTRFWGPPFQNGMSAYYTAVNRNKRSITVNLKSAEGQETIRRLAETADVLIHNFKTGTMEQWELGYESLSRLNPRLIYCSITGFGETGPLAPLAGYDYIIQAMSGWMSINGTADTGPLKVGVAVTDVFTGLYAAIAIEAALLAREKTGRGQKIDLALFDCAVSALVNVAANYLLSGDVPKPLGNEHPNIVPYSTYMASDGPIVIAVGNDRQFQALCSLLSDHSLGTDPRFQTNPGRVAHREELNRRLNEEIKRRTRAEWQRLLAEKGIPCGPVQTLDELFRHPQTAAREMTVTVHHPIVGPLTLVASPLKLSDTAVSYRLPPPLAGEHNGEVEAGWQGKPAAENGPHDKNQ
6. MRHLSLLLCCLLAWPARAETLVEIPTRPGVALRFLLLEPPGPPRANLILLAGGEGLLKLSAEGELGAGRGNFLVRTRQGWADMGFRVAVVDAPSDMPRGLLGDFRERAEHAADIAAVSDYLRRGAALPVWLAGTSRGTTSAAAVALNRPDAADGLLLTSSIDAGRGSLAGLPLERLAVPVLMIQHRRDECRASRPGNLGPVLDRLRADAPRELMLLDGGGSEGDPCQPWAWHGYNGIERRVLGLAGAWMLAHGRHLEHHHHHH

Solution:
not soluble
not soluble
soluble
soluble
not soluble
not soluble

Quick request: soluble on expression in E. coli for each listed item, please.
1. SILEGGGVMNLNPGNNLLHQPPAWTDSYSTCNVSSGFFGGQWHEIHPQYWTKYQVWEWLQHLLDTNQLDANCIPFQEFDINGEHLCSMSLQEFTRAAGTAGQLLYSNLQHLKWNGQCSSDLFQSTHNVIVKTEQTEPSIMNTWKDENYLYDTNYGSTVDLLDSKTFCRAQISMTTTSHLPVAESPDMKKEQDPPAKCHTKKHNPRGTHLWEFIRDILLNPDKNPGLIKWEDRSEGVFRFLKSEAVAQLWGKKKNNSSMTYEKLSRAMRYYYKREILERVDGRRLVYKFGKNARGWRENEN
2. VNQQQLQQLMDMGFTREHAMEALLNTSTMEQATEYLLTHP

Solution:
["soluble", "soluble"]
